FYI, the data here is from ChEMBL document CHEMBL1201862.

Listing of entries alongside the reported GI50.
- System: DLD-1
- Experiment notes: NCI tumour cell line growth inhibition, 48 h
Active and inactive are the calls of the source. Rule as the data show it: active = GI50 up to about 1.1 µM and inactive = higher.

[
  {
    "Compound": "Cc1ccccc1NC(=O)C(=O)C(C#N)c1ccc(Cl)cc1 (stereo unspecified)",
    "GI50": "41.8 µM (inactive)"
  },
  {
    "Compound": "O=C(c1cc(=O)c2ccc(O)cc2o1)c1ccc(Cl)cc1Cl",
    "GI50": "17.4 µM (inactive)"
  },
  {
    "Compound": "CC(/C=C1\\CCC(CN(C)C)C1=O)c1cccc(Br)c1 (stereo unspecified)",
    "GI50": "9.57 µM (inactive)"
  },
  {
    "Compound": "COC(=O)N1[C@H]2Cc3c(OC)c(C)c(OC)c(OC)c3[C@@H]1/C(=C\\c1cc(OC)c(OC)c(C)c1OC)N(Cc1ccccc1)C2=O",
    "GI50": "76.9 µM (inactive)"
  },
  {
    "Compound": "O=C(c1ccccc1)N1CCc2c([nH]c3ccccc23)C1",
    "GI50": "64.7 µM (inactive)"
  },
  {
    "Compound": "COc1ccc(/C=C(\\NC(=O)c2ccccc2)c2nc3ccccc3[nH]2)cc1",
    "GI50": "33.6 µM (inactive)"
  },
  {
    "Compound": "CC#C[I+]c1ccccc1",
    "GI50": "14.3 µM (inactive)"
  },
  {
    "Compound": "CC1=CC(C)(c2c[nH]c3ccccc23)CC(C)(C)c2c1[nH]c1ccccc21 (stereo unspecified)",
    "GI50": "13.7 µM (inactive)"
  },
  {
    "Compound": "CC(C)c1ccc(C2C3=C(N=C4SCC(=O)N42)C(=O)c2ccccc23)cc1 (stereo unspecified)",
    "GI50": "81.8 µM (inactive)"
  },
  {
    "Compound": "Cc1cc(NS(=O)(=O)c2ccc(NC(=O)c3cccc4c(N)c5ccccc5nc34)cc2)no1",
    "GI50": "30.6 µM (inactive)"
  },
  {
    "Compound": "Nc1nn(CC(O)CO)c(=O)s1 (stereo unspecified)",
    "GI50": "> 100 µM (inactive)"
  }
]

* * *

- System: 786-0
- Experiment notes: NCI tumour cell line growth inhibition, 48 h
Activity calls are given as the source filed them. No stated cut-off is given here; in the data, active = GI50 up to about 1.1 µM and inactive = higher.
Listed here: items and their measured GI50.

[
  {
    "Molecule": "S=P(c1ccccc1)(c1ccccc1)C1(C2(P(=S)(c3ccccc3)c3ccccc3)CC2)CC1",
    "GI50": "> 100 µM (inactive)"
  },
  {
    "Molecule": "N#C/C(=C\\c1cccc(O)c1O)C(N)=O",
    "GI50": "33.3 µM (inactive)"
  },
  {
    "Molecule": "O=C(O)c1ccc(Nc2ccnc3cc(Cl)ccc23)cc1O",
    "GI50": "> 100 µM (inactive)"
  },
  {
    "Molecule": "CCN(CC)Cc1nc(C2CCC([N+](=O)[O-])O2)no1 (stereo unspecified)",
    "GI50": "40 µM (inactive)"
  },
  {
    "Molecule": "CC1(C)O[C@@H](CO)[C@H]([C@@]23OC[C@H]4OC(C)(C)OC4[C@@H]2OC(C)(C)O3)O1 (stereo partly specified)",
    "GI50": "> 100 µM (inactive)"
  },
  {
    "Molecule": "O=C1c2ccccc2C(=O)c2c1ccc1c3ccccc3n(Cc3ccccc3)c21",
    "GI50": "> 100 µM (inactive)"
  },
  {
    "Molecule": "Brc1ccccc2cc(-c3ccccc3)nc1-2",
    "GI50": "1.92 µM (inactive)"
  },
  {
    "Molecule": "CN1/C(=C/C=C/C=C/C=C2C(=O)c3ccccc3C2=O)C(C)(C)c2ccccc21",
    "GI50": "> 100 µM (inactive)"
  },
  {
    "Molecule": "Cc1cccc(Nc2nc(NNC(=O)Cc3ccccc3)nc(NNC(=O)c3ccncc3)n2)c1",
    "GI50": "> 10 µM (inactive)"
  },
  {
    "Molecule": "CC(=O)c1cccc(NCn2nnc3ccccc32)c1",
    "GI50": "> 100 µM (inactive)"
  },
  {
    "Molecule": "COc1ccc(OC)c(NC(=O)C(=O)Nn2c(S)nc3ccccc3c2=O)c1",
    "GI50": "> 100 µM (inactive)"
  }
]

* * *

- System: SF-268
- Experiment notes: NCI tumour cell line growth inhibition, 48 h
Active and inactive are the calls of the source. Cut-off read from the data, not from the text of the source: active = GI50 up to about 1.1 µM and inactive = higher.
Measured property: GI50

[
  {
    "Molecule": "Cc1cccc(Nc2nc(NNC(=O)Cc3ccccc3)nc(NNC(=O)c3ccncc3)n2)c1",
    "Measured property": "GI50",
    "Assay result": "> 10 µM (inactive)"
  },
  {
    "Molecule": "N=C(N)C1CN(CCc2c[nH]cn2)C(=O)NC1=O (stereo unspecified)",
    "Measured property": "GI50",
    "Assay result": "> 100 µM (inactive)"
  },
  {
    "Molecule": "O=C(O)C1=C(C(=O)O)N(c2ccncc2)C(c2ccco2)=CC1c1ccccc1[N+](=O)[O-] (stereo unspecified)",
    "Measured property": "GI50",
    "Assay result": "13.1 µM (inactive)"
  },
  {
    "Molecule": "O=C(O)CCSC(=O)Nc1cccc2ccccc12",
    "Measured property": "GI50",
    "Assay result": "> 100 µM (inactive)"
  },
  {
    "Molecule": "CC12CC3c4ccccc4CN1C3(c1ccccc1)OC2=O (stereo unspecified)",
    "Measured property": "GI50",
    "Assay result": "> 100 µM (inactive)"
  },
  {
    "Molecule": "Cc1ccc(S(=O)(=O)c2ccc([N+](=O)[O-])o2)cc1",
    "Measured property": "GI50",
    "Assay result": "11.1 µM (inactive)"
  }
]

* * *

- Test system: A498
- Experiment notes: NCI tumour cell line growth inhibition, 48 h
Active and inactive are the calls of the source. Cut-off read from the data, not from the text of the source: active = GI50 up to about 1.1 µM and inactive = higher.
Labels: true = active, false = inactive

[
  {
    "Compound": "N/C(=N\\N=C=C1C(=O)Nc2ccc(F)cc21)NO",
    "Target or test system": "A498",
    "Cat": "false"
  },
  {
    "Compound": "Cc1c(N=NN(C)C)cc[n+]([O-])c1C",
    "Target or test system": "A498",
    "Cat": "false"
  },
  {
    "Compound": "COC(=O)[C@@H]1[C@H]2CC[C@]3(C)[C@@H](OC(C)=O)CC[C@H]3[C@@H]2CC[C@H]1C1(C)SCCS1",
    "Target or test system": "A498",
    "Cat": "false"
  },
  {
    "Compound": "CCN(CC)CCNC(=O)c1cc2cc(NC(=O)c3cc4cc(N)ccc4[nH]3)ccc2[nH]1",
    "Target or test system": "A498",
    "Cat": "false"
  },
  {
    "Compound": "NC1=C2C(Br)=CN([C@@H]3O[C@H](CO)[C@@H](O)[C@@H]3O)C2C(=O)N=N1 (stereo partly specified)",
    "Target or test system": "A498",
    "Cat": "false"
  },
  {
    "Compound": "COc1cc(Nc2nc3ccc(C(F)(F)F)cc3nc2-c2ccccc2)cc(OC)c1OC",
    "Target or test system": "A498",
    "Cat": "false"
  },
  {
    "Compound": "O=C1Oc2ccc([N+](=O)[O-])cc2N/C1=C\\C(=O)c1ccccc1",
    "Target or test system": "A498",
    "Cat": "false"
  },
  {
    "Compound": "CCNc1ccc2c(c1)Cc1ccccc1-2",
    "Target or test system": "A498",
    "Cat": "false"
  },
  {
    "Compound": "COC(=O)Nc1nc2cc(NS(=O)(=O)c3ccc(F)cc3)ccc2[nH]1",
    "Target or test system": "A498",
    "Cat": "false"
  },
  {
    "Compound": "CC1(C)CC(=O)C/C(=N/c2ccc([N+](=O)[O-])cc2)C1",
    "Target or test system": "A498",
    "Cat": "false"
  },
  {
    "Compound": "CC1=NN=C(C)C1/N=N/c1ccc2[nH]c(C)nc2c1",
    "Target or test system": "A498",
    "Cat": "false"
  },
  {
    "Compound": "CCO/C=N/C1=C(C#N)SC2=N/C(=C\\c3ccccc3)C(=O)N21",
    "Target or test system": "A498",
    "Cat": "false"
  },
  {
    "Compound": "COc1cccc(-c2cc(O)c3c(C)ccnc3n2)c1",
    "Target or test system": "A498",
    "Cat": "true"
  },
  {
    "Compound": "CCOP(=O)(Nc1ccccc1P(=O)(OCC)OCC)OCC",
    "Target or test system": "A498",
    "Cat": "false"
  },
  {
    "Compound": "Cc1cccc(C)c1NC(=O)C(=O)Nn1c(NN)nc2ccccc2c1=O",
    "Target or test system": "A498",
    "Cat": "false"
  },
  {
    "Compound": "O=C1/C(=C\\c2ccc([N+](=O)[O-])cc2)CS(=O)(=O)C/C1=C/c1ccc([N+](=O)[O-])cc1",
    "Target or test system": "A498",
    "Cat": "false"
  },
  {
    "Compound": "CC(C)(C)NCC(O)COc1cccc2[nH]c(C#N)cc12 (stereo unspecified)",
    "Target or test system": "A498",
    "Cat": "false"
  },
  {
    "Compound": "CC1=C/C(=N\\N(C)C)C(C(O)(C(F)(F)F)C(F)(F)F)C(C)(C)C1 (stereo unspecified)",
    "Target or test system": "A498",
    "Cat": "false"
  },
  {
    "Compound": "Sc1nnc(/C=C/c2ccc(Cl)c(Cl)c2)[nH]1",
    "Target or test system": "A498",
    "Cat": "false"
  },
  {
    "Compound": "O=C1CSC(c2ccccc2O)N1c1nc2cc3sc(N4C(=O)CSC4c4ccccc4O)nc3cc2s1 (stereo unspecified)",
    "Target or test system": "A498",
    "Cat": "false"
  },
  {
    "Compound": "OC1c2ccccc2CC12Cc1ccccc1C2 (stereo unspecified)",
    "Target or test system": "A498",
    "Cat": "false"
  }
]
